- Test system: 697
- METHOD_DESCRIPTION: cells
- Type: functional, cell-based
- RUN_CONDITIONS: Homo sapiens
- Description: SANGER: Inhibition of human 697 cell growth in a cell viability assay.
Would you kindly list IC50 for each of these compounds?
Express your answer in nM, writing the number without its unit.

Ask: IC50 lookup needed for Cn1cncc1[C@@](N)(c1ccc(Cl)cc1)c1ccc2c(c1)c(-c1cccc(Cl)c1)cc(=O)n2C , thanks.
Reply: 1280

Ask: State the recorded IC50 for this entry: COc1cc([C@@H]2c3cc4c(cc3[C@@H](O[C@@H]3O[C@@H]5CO[C@@H](C)O[C@H]5[C@H](O)[C@H]3O)[C@H]3COC(=O)[C@H]23)OCO4)cc(OC)c1O [ETOPOSIDE]
Reply: 243

Ask: I'd like to know its IC50. The compound in question is CN(Cc1cnc2nc(N)nc(N)c2n1)c1ccc(C(=O)N[C@@H](CCC(=O)O)C(=O)O)cc1 [METHOTREXATE]
Reply: 12.6

Ask: Sample C=C1C(=O)O[C@@H]2C3O[C@]3(C)CC/C=C(\C)CC[C@@H]12 (some centres not stated) — what was its IC50?
Reply: 465

Ask: Entry under review: O=C(c1cc(Cc2n[nH]c(=O)c3ccccc23)ccc1F)N1CCN(C(=O)C2CC2)CC1 . Reported IC50?
Reply: 2840
